# credit: ChEMBL document CHEMBL1137396

# assayExplanation: AUC in dog at 3 mg/kg, po
# Format: ADME, organism-based, Canis lupus familiaris
# Set-up: dose 3 mg/kg, route oral
# assayConditions: plasma

# molecule, AUC (µM·h)
data = [
    ("CC(C)(C)NC(=O)N[C@H](C(=O)N1C[C@H]2[C@@H]([C@H]1C(=O)NC(CC1CCC1)C(=O)C(N)=O)C2(C)C)C(C)(C)C (stereo partly specified)", 3.08),
]

----------
# assayExplanation: Selectivity for human neutrophil elastase (HNE) over HCV NS3 protease
Rule: Selectivity ratio below 200 gives MET. Equal to or above 200 gives NOT MET.

# compound, classLabel
measured = [
    ("CC(C)(C)OC(=O)N[C@H](C(=O)N1C[C@H]2[C@@H]([C@H]1C(=O)NC(CC1CCCC1)C(=O)C(N)=O)C2(C)C)C1CCCCC1 (stereo partly specified)", "NOT MET"),
    ("CC(C)[C@H](NC(=O)OC(C)(C)C)C(=O)N1C[C@H]2[C@@H]([C@H]1C(=O)NC(CC1CC1)C(=O)C(N)=O)C2(C)C (stereo partly specified)", "MET"),
    ("CC(C)[C@H](C)OC(=O)N[C@H](C(=O)N1C[C@H]2[C@@H]([C@H]1C(=O)NC(CC1CCC1)C(=O)C(N)=O)C2(C)C)C(C)(C)C (stereo partly specified)", "NOT MET"),
    ("CC(C)(C)OC(=O)N[C@H](C(=O)N1C[C@H]2[C@@H]([C@H]1C(=O)NC(CC1CCC1)C(=O)C(N)=O)C2(C)C)C(C)(C)C (stereo partly specified)", "NOT MET"),
    ("CC(C)OC(=O)N[C@H](C(=O)N1C[C@H]2[C@@H]([C@H]1C(=O)NC(CC1CC1)C(=O)C(N)=O)C2(C)C)C(C)(C)C (stereo partly specified)", "MET"),
    ("CC(C)NC(=O)N[C@H](C(=O)N1C[C@H]2[C@@H]([C@H]1C(=O)NC(CC1CC1)C(=O)C(N)=O)C2(C)C)C(C)(C)C (stereo partly specified)", "MET"),
]

----------
# assayExplanation: Bioavailability in monkey at 2 mg/kg, po
# assayConditions: rhesus monkey, in vivo

# molecule, unitSymbol, bioavailability
records = [
    ("CC(C)(C)NC(=O)N[C@H](C(=O)N1C[C@H]2[C@@H]([C@H]1C(=O)NC(CC1CC1)C(=O)C(N)=O)C2(C)C)C(C)(C)C (stereo partly specified)", "%", 2),
]

----------
# studyTarget: NS3 (Hepatitis C virus)
Below: a set of entries, each annotated with reported Ki.
readout: Ki (nM)

# compound, readout, unitSymbol, relationOperator, numericResult
measured = [
    ("CC(C)(C)OC(=O)N[C@H](C(=O)N1C[C@H]2[C@@H]([C@H]1C(=O)NC1(C(=O)C(N)=O)CC1)C2(C)C)C1CCCCC1", "Ki", "nM", ">", 14000),
    ("CC(C)OC(=O)N[C@H](C(=O)N1C[C@H]2[C@@H]([C@H]1C(=O)NC(CC1CC1)C(=O)C(N)=O)C2(C)C)C(C)(C)C (stereo not given in full)", "Ki", "nM", "=", 150),
    ("CCCC(NC(=O)[C@@H]1[C@@H]2[C@H](CN1C(=O)[C@@H](NC(=O)OC(C)(C)C)C1CCCCC1)C2(C)C)C(=O)C(=O)N(C)C (stereo not given in full)", "Ki", "nM", ">", 13000),
    ("CC(C)(C)OC(=O)N[C@H](C(=O)N1C[C@H]2[C@@H]([C@H]1C(=O)NC(CC1CCC1)C(=O)C(N)=O)C2(C)C)C(C)(C)O (stereo not given in full)", "Ki", "nM", "=", 220),
    ("CC(C)(C)OC(=O)N[C@H](C(=O)N1C[C@H]2[C@@H]([C@H]1C(=O)NC(CC1CCC1)C(=O)C(N)=O)C2(C)C)C1(C)CC1 (stereo not given in full)", "Ki", "nM", "=", 700),
]

----------
# studyTarget: NS3 (Hepatitis C virus, UniProt A3EZJ3)
# Sequence (A3EZJ3 whole entry): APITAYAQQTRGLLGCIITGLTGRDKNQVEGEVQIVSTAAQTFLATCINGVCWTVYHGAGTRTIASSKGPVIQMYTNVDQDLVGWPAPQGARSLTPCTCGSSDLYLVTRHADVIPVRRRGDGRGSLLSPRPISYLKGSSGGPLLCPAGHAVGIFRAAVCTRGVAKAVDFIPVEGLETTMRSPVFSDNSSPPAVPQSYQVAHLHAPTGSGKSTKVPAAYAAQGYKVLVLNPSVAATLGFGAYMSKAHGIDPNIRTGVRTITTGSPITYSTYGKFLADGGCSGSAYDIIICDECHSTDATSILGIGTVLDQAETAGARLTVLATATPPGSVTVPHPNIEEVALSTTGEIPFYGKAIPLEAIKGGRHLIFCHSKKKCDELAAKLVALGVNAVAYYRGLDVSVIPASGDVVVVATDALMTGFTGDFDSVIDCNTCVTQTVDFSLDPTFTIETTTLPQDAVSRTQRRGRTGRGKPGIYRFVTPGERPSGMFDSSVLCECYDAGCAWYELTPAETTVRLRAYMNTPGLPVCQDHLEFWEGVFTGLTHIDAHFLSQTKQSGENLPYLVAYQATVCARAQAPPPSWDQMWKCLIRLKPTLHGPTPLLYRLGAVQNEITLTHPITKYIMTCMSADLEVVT
pKi: −log10 of the molar value.

# compound, pKi
measured = [
    ("CC(C)(C)OC(=O)N[C@H](C(=O)N1C[C@H]2[C@@H]([C@H]1C(=O)NC(CC1CCC1)C(=O)C(N)=O)C2(C)C)C1CCCCC1 (stereo partly specified)", 8.10),
    ("C=CCNC(=O)C(=O)C(CCC)NC(=O)[C@@H]1[C@@H]2[C@H](CN1C(=O)[C@@H](NC(=O)OC(C)(C)C)C1CCCCC1)C2(C)C (stereo partly specified)", 6.55),
    ("CC(C)(C)OC(=O)N[C@H](C(=O)N1C[C@H]2[C@@H]([C@H]1C(=O)NC(CC1CC1)C(=O)C(N)=O)C2(C)C)C1(C)CC1 (stereo partly specified)", 6.52),
    ("CC(C)NC(=O)N[C@H](C(=O)N1C[C@H]2[C@@H]([C@H]1C(=O)NC(CC1CCC1)C(=O)C(N)=O)C2(C)C)C(C)(C)C (stereo partly specified)", 7.80),
    ("CCCC(NC(=O)[C@@H]1[C@@H]2[C@H](CN1C(=O)[C@@H](NC(=O)OC(C)(C)C)C1CCCCC1)C2(C)C)C(=O)C(=O)NCC(=O)N[C@@H](C)C1CCCCC1 (stereo partly specified)", 7.04),
    ("CC(C)(C)NC(=O)N[C@H](C(=O)N1C[C@H]2[C@@H]([C@H]1C(=O)NC(CC1CCC1)C(=O)C(N)=O)C2(C)C)C(C)(C)C (stereo partly specified)", 7.85),
]
